Documented drug sensitivity score across a set of molecules
- Tested on: SW480
- Assay Remarks: drug sensitivity score (DSS, integrated dose-response area); higher = more sensitive (stronger viability reduction); extreme values may be limits of the assay
- Details: shRNA: SND1 shRNA1 (SND1 silenced)

Molecule | Units Label | drug sensitivity score
COC(=O)c1ccc2c(c1)[nH]c1ncnc(NCCCN3CCCCC3)c12 [UM729] | DSS | 1.8
NS(=O)(=O)OC[C@@H]1C[C@@H](n2ccc3c(N[C@H]4CCc5ccccc54)ncnc32)C[C@@H]1O [Pevonedistat] | DSS | 4.5
CS(=O)(=O)OCCCCOS(C)(=O)=O [Busulfan] | DSS | 0
CCCCC/C=C/C=C1/C(=O)C=C[C@@H]1C/C=C\CCCC(=O)O [15D-PGJ2] | DSS | 1.7
CCS(=O)(=O)c1cccc(-c2cc(C(=O)NC3CCN(C)CC3)c(C)c3[nH]c4ncc(C)cc4c23)c1 [TAK-901] | DSS | 0.6
CN1CCN(c2nc(C3=C(c4c[nH]c5ccccc45)C(=O)NC3=O)c3ccccc3n2)CC1 [Sotrastaurin] | DSS | 4.5
Cc1c(F)cc(C(=O)NC2CC2)cc1-c1ccc(C(=O)NCC(C)(C)C)cn1 [Losmapimod] | DSS | 0
Nc1ncnc2c1c(COc1cccc(Cl)c1)nn2C1CCOCC1 | DSS | 0
Cc1nc(C(=O)NCC(=O)O)c(O)c2ccc(Oc3ccccc3)cc12 [FG-4592] | DSS | 4.8
CN1CCN(c2ccc3nc(-c4c(N)c5c(F)cccc5[nH]c4=O)[nH]c3c2)CC1 [Dovitinib] | DSS | 0.1
C=CCn1c(=O)c2cnc(Nc3ccc(N4CCN(C)CC4)cc3)nc2n1-c1cccc(C(C)(C)O)n1 [MK1775] | DSS | 13.5
Nc1cccc2c1C(=O)N(C1CCC(=O)NC1=O)C2=O (stereo unspecified) [Pomalidomide] | DSS | 0
CC1(C)CCC(CN2CCN(c3ccc(C(=O)NS(=O)(=O)c4ccc(NCC5CCOCC5)c([N+](=O)[O-])c4)c(Oc4cnc5[nH]ccc5c4)c3)CC2)=C(c2ccc(Cl)cc2)C1 [Venetoclax] | DSS | 0
Nc1nc(Nc2ccc3c(c2)CC[C@@H](N2CCCC2)CC3)nn1-c1cc2c(nn1)-c1ccccc1CCC2 [BGB324] | DSS | 9
C[C@@H]1C[C@H]2[C@@H]3CCC4=CC(=O)C=C[C@]4(C)[C@@]3(F)[C@@H](O)C[C@]2(C)[C@@]1(O)C(=O)CO [Dexamethasone] | DSS | 0
CNC(=O)c1ccccc1Nc1cc(Nc2ccc(N3CCOCC3)cc2OC)ncc1C(F)(F)F [VS-4718] | DSS | 4.8
